Measured values drawn from paper PMC5540273 for this set.

Recorded %Inh values for a group of compounds are listed next.
# Tested on: ARK5;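 further: KINOMEscan kinase panel screen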
# Construct: gene NUAK1
# conditions: concentration: 1 μM, replicates: in singlicate; n = 1

| compound | %Inh |
| --- | --- |
| Cc1ccc(C)c(NC(=O)Nc2ccc(C)c(-c3ccc(C(=O)Nc4ccncc4)cc3)c2)c1 [GSK1398473] | 17% |
| N#Cc1cnc2cc(-c3cnc(CNCCN4CCOCC4)s3)ccc2c1Nc1ccc(Oc2ccccc2)cc1 [GW664114] | 10% |
| COC(=O)Nc1nc2ccc(Oc3ccc(CC(=O)Nc4cc(C(F)(F)F)ccc4F)cc3)cc2[nH]1 [GW680903] | 7% |
| Cc1ccccc1CC(=O)N1CCc2cc(-c3cn(C)c4ncnc(N)c34)ccc21 [GSK2603346] | 42% |
| O=C(Nc1n[nH]c2nc(-c3cccc(O)c3)ccc12)C1CC1 [SB-711805] | 0% |
| COc1cccc(CC(=O)N2CCc3cc(-c4cn(C)c5ncnc(N)c45)ccc32)c1 [GSK2608899] | 19% |
| Cn1cc(-c2cnc(N)c3c(-c4ccc5c(c4)CCN5C(=O)Cc4ccccc4)csc23)cn1 [GSK2593074] | 3% |
| CN(C)CCOc1ccc(-c2cc(-c3ccc(Cl)c(O)c3)c(-c3ccncc3)[nH]2)cc1.Cl.Cl [SB-684387] | 1% |
| CN1CCN(Cc2ccc(NC(=O)Nc3ccc(N(C)c4ccnc(Nc5ccc(CS(C)(=O)=O)cc5)n4)cc3)cc2)CC1.Cl [GW827654] | 8% |
| Cl.Cl.NCC(NC(=O)c1cc(-c2cccnc2)c(-c2ccnc3[nH]ccc23)s1)c1ccccc1 (stereo not shown) [GSK1323434] | 0% |
| CC(C)c1nc(-c2cccc(NS(=O)(=O)c3c(F)cccc3F)c2)c(-c2ccnc(Nc3ccc(N4CCOCC4)nc3)n2)s1.Cl [GSK1723980] | 1% |
| COC(=O)Nc1nc2ccc(Oc3ccc(NC(=O)Nc4cc(C(F)(F)F)ccc4F)cc3)cc2[nH]1.Cl [GW654607] | 9% |
| CCn1c(-c2nonc2N)nc2c(-c3ccccc3)ncc(OCCCN)c21.O=C(O)C(F)(F)F.O=C(O)C(F)(F)F [GSK260205] | 0% |
| COc1ccc(C2=C(Nc3cccc(O)c3)C(=O)NC2=O)cc1 [SB-390766] | 0% |
| COc1ccc(C)c(Nc2ccnc(Nc3ccc(-c4cnc[nH]4)cc3)n2)c1.Cl [GW784041] | 99.3% |
| Nc1ncc(-c2cn[nH]c2)c2scc(-c3ccc4c(c3)CCN4C(=O)Cc3ccccc3)c12 [GSK2593067] | 26% |
